Here the recorded cell viability is given for each entry.
# Test system: HepG2
# protocol.description: cell viability relative to DMSO; higher = less toxic
# settings: 72 h; 1000 nM
quantity: cell viability (%)

molecule	observed.result
CCC(=O)c1ccc(OCC(O)CN2CCN(c3ccccc3)CC2)cc1 (stereo not drawn) [centpropazine]	101
C[C@@H]1COCCN1c1cc(=O)n2c(n1)N(Cc1cncc(Cl)c1)[C@H](C(F)(F)F)CC2 [SAR405]	76.9
CN1Cc2c(C(=O)OC(C)(C)C)ncn2-c2ccsc2C1=O [Ro-19-4605]	96.6
O=C(Nc1ncc(SCCN2CCCC2)s1)[C@]1(c2ccc(S(=O)(=O)C3CC3)cc2)C[C@H]1C1CCCCC1	90.2
C[C@]12CC[C@H](O)C[C@H]1CC[C@@H]1[C@@H]2CC[C@]2(C)[C@@H](C3=CC(=O)OC3)CC[C@]12O [digitoxigenin]	39.2
COc1ccc2c(Oc3ccc(NC(=O)c4c(C)n(CC(C)(C)O)n(-c5ccccc5)c4=O)nc3)ccnc2c1 [AMG458]	88.3
CO/N=C(\C(=O)N[C@@H]1C(=O)N2C(C(=O)O)=C(COC(N)=O)CS[C@H]12)c1ccco1 [CEFUROXIME SODIUM]	97.8
NCC(=O)N[C@@H](CCC(N)=O)C(=O)O [gly-gln]	106
Oc1ccc2c3c1O[C@H]1c4c(c5ccccc5n4Cc4ccccc4)C[C@@]4(O)[C@@H](C2)N(CC2CC2)CC[C@]314 [N-benzylnaltrindole]	100
CCOC(CN1CCN(CC(C)C(=O)c2ccccc2)CC1)c1ccccc1 (stereo not drawn) [eprazinone]	98.9
O=C(NC(NC(=S)Nc1ccc(F)c([N+](=O)[O-])c1)C(Cl)(Cl)Cl)C(c1ccccc1)c1ccccc1 (stereo not drawn) [CGK-733]	96.7
C#C[C@]1(O)CC[C@H]2[C@@H]3CCc4cc(O)ccc4[C@H]3CC[C@@]21C [ETHINYL ESTRADIOL]	90.8
CC[C@H](NC(=O)c1c(O)c(-c2ccccc2)nc2ccccc12)c1ccccc1 [talnetant]	100
c1cc2c(cc1[C@H]1OC[C@H]3[C@@H]1CO[C@@H]3c1ccc3c(c1)OCO3)OCO2 [sesamin]	91.1
CCc1cc(/C(C)=N/OCc2ccc(C3CCCCC3)c(C(F)(F)F)c2)ccc1CN1CC(C(=O)O)C1 [siponimod]	110
COc1nccnc1NS(=O)(=O)c1ccc(N)cc1 [sulfametopyrazine]	91.9
CNC[C@@H]1CC[C@@H](N)[C@@H](O[C@H]2[C@H](O)[C@@H](O[C@H]3OC[C@](C)(O)[C@H](NC)[C@H]3O)[C@H](N)C[C@@H]2N)O1 [micronomicin]	100
CC(=O)NCCC(=O)N[C@@H](Cc1c[nH]cn1)C(=O)O [N-acetylcarnosine]	96.2
CCCCCn1cc(C(=O)NC23CC4CC(CC(C4)C2)C3)c(=O)c2cc(-c3ccccc3)ccc21 [COR-170]	105
CCOc1ccc(-c2ccc(Cn3c(CC(C)(C)C(=O)O)c(SC(C)(C)C)c4cc(OCc5ccc(C)cn5)ccc43)cc2)cn1	86.2
CC(=O)[C@H]1CC[C@H]2[C@@H]3CC[C@H]4C[C@](C)(O)CC[C@]4(C)[C@H]3CC[C@]12C [ganaxolone]	102
CC(C)C(=O)c1ccc(O)c(O)c1 [U-0521]	114
S=C(NC1CCCCC1)N1CCC(c2cnc[nH]2)CC1 [thioperamide]	100
N[C@@H]1CCN(c2cccnc2)C1 [ABT-202]	105
Nc1ccc(-c2ccc3ncc4ccc(=O)n(-c5cccc(C(F)(F)F)c5)c4c3c2)cn1 [torin-2]	16.3
CNC(=O)c1cc(COc2nnc(Nc3ccc(Cl)cc3)c3ccoc23)ccn1 [telatinib]	101
CCCCCCCC(=O)N[C@H](CN1CCCC1)[C@H](O)c1ccc2c(c1)OCCO2 [eliglustat]	108
OCCN(CCO)c1nc(N2CCCCC2)c2nc(N(CCO)CCO)nc(N3CCCCC3)c2n1 [dipyridamole]	100
C=CC(N)CCC(=O)O (stereo not drawn) [vigabatrin]	96.1
C=C[C@]1(C)CC[C@@H](C(=C)C)C[C@H]1C(=C)C [beta-elemene]	106
O=C(O)CNC(=O)c1ccccc1I [2-iodohippuric-acid]	101
CC[C@@H]1C(=O)N(C)c2cnc(Nc3ccc(C(=O)N[C@H]4CC[C@H](N5CCN(CC6CC6)CC5)CC4)cc3OC)nc2N1C(C)C [volasertib]	17.6
CCOC(=O)C1=C(C)NC(C)=C(C(=O)OC)C1c1cccc(Cl)c1Cl (stereo not drawn) [felodipine]	99.2
